system: test plant species; assay: Post-emergent herbicidal activity test (greenhouse, foliar spray, visual growth reduction); assay type: in vivo; settings: post-emergence, 336 h, lambsquarters (Chenopodium album), 14 Days After Application, 140 g ai/ha, read-out: Visual Growth Reduction (%) CHEAL
parameter: pest or weed control at 140 g/ha

// pest or weed control at 140 g/ha lookup, key: `COC(=O)c1nc(-c2ccc(O)cc2F)c(F)cc1Cl` 0 to 29%

Thanks! And `COC(=O)c1nc(-c2ccc(Cl)c(C(F)F)c2Cl)ccc1Cl` ? 85 to 94%

Param item: `COC(=O)c1nc(-c2cc(F)c(Cl)c(OC)c2)ccc1Cl` 0 to 29%

Here is the next compound: `COc1cc(-c2nc(C(=O)O)c(Cl)cc2F)c(Cl)cc1C(F)(F)F` 75 to 84%

What would you report for `COC(=O)c1nc(-c2ccc3c(c2)OC(F)(F)O3)c(F)cc1Cl` ? 75 to 84%

These entries and their values trace back to patent US20230017045A1.
